Test system: 521955-158-R2-J5-PDC complex spheroid viability;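 further: spheroids exposed to agents for seven days; percent of DMSO vehicle control luminescence viability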
protocol_notes: Anticancer human tumor 521955-158-R2-J5-PDC patient-derived pancreatic carcinoma cell line growth inhibition
test_parameters: second compound 1 µM; first compound 0.316 µM; stronger effect = lower value
result_type: viability, T/C

In the examples that follow, each entry is paired with its recorded viability, T/C.
O=C(C=Cn1cnc(-c2cc(C(F)(F)F)cc(C(F)(F)F)c2)n1)NNc1cnccn1 + NC1CC1c1ccc(-c2cccc(O)c2)cc1; 40.5%
CC1COCCN1c1cc(-c2ccnn2C)c2ccnc(-c3ccn[nH]3)c2n1 (stereo not given) + NC1CCC(NC2CC2c2ccccc2)CC1; 27.5%
CC1COCCN1c1cc(C2(S(C)(=N)=O)CC2)nc(-c2ccnc3[nH]ccc23)n1 (stereo not given) + NC1CCC(NC2CC2c2ccccc2)CC1; 74.7%

Fill in: viability, T/C of O=C(c1cc(Cc2n[nH]c(=O)c3ccccc23)ccc1F)N1CCN(C(=O)C2CC2)CC1 + NC1CC1c1ccc(-c2cccc(O)c2)cc1 is ___
79.7%

Please do the same for Nc1ncn(C2CC(O)C(CO)O2)c(=O)n1 (stereo not given) + NC1CC1c1ccc(-c2cccc(O)c2)cc1 as well.
68.8%
